Experimental Details: Cytotoxicity Determination
Assay type: cell-based
Test Conditions: human, HEp-2 cells, without addition of virus, CCK-8 readout, bins (Table 4: greater than 100 μM; Table 5: equal to or less than 100 μM and greater than 10 μM), read-out: 50% cytotoxicity concentration (CC50)
Provide the recorded CC50 at 5 days for the entries that follow.

input: Request the reported CC50 at 5 days associated with `COc1cc(C(=O)NCC(=O)c2ccc(OC)c(-c3csc4ccc(F)cc34)n2)ccc1OCCO`
output: > 100 µM

input: Find the recorded CC50 at 5 days belonging to `COc1ccc(C(=O)Nc2cn(C)c3ccc(-c4csc5c(F)cccc45)nc3c2=O)cc1OC` and report it.
output: > 100 µM

input: Record request: CC50 at 5 days value, item CCCC/C(=N/NC(=O)CNC(=O)c1ccc(OCC)c(OC)c1)c1csc2c(F)cccc12 [Compound 462B]
output: 10 to 100 µM

input: Entry under review: `COc1ccc(C(=O)NCC(=O)N/N=C(\C)c2cc(C)sc2C)cc1OC` . Reported CC50 at 5 days?
output: > 100 µM

input: # query: CC50 at 5 days of entry `COc1ccc(C(=O)NCC(=O)c2cccc(-c3csc4c(F)cccc34)c2)cc1OC`
output: > 100 µM

input: Which CC50 at 5 days is listed for `COc1cc(C(=O)NCC(=O)c2ccc(OC)c(C3=CS(=O)(=O)c4c(F)cccc43)n2)ccc1OCCO` ?
output: 10 to 100 µM

input: Which CC50 at 5 days is listed for `COc1cc(C(=O)NCC(=O)c2cccc(-c3csc4c(F)cccc34)n2)ccc1OCCO` ?
output: 10 to 100 µM

input: Which CC50 at 5 days is listed for `COc1ccc(C(=O)NCC(=O)c2ccc(OC)c(-c3ccc4ccccc4c3)n2)cc1OC` ?
output: > 100 µM

----------
Answer each item with its documented CC50 at 5 days.
Experimental Details: Cytotoxicity Determination
Type: cell-based
Test Conditions: human, HEp-2 cells, without addition of virus, CCK-8 readout, bins (Table 4: greater than 100 μM; Table 5: equal to or less than 100 μM and greater than 10 μM), read-out: 50% cytotoxicity concentration (CC50)
Method: In order to determine the compound cytotoxicity, in parallel, each of the compounds is applied to duplicate wells in a 384-well cell plate at serial final concentrations starting from 100 μM using ½ stepwise dilutions for 7 points without addition of virus. Incubate the cells at 37° C., 5% CO2 for 5 days. Add 6 μl CCK-8 into each well and incubate in a CO2 incubator at 37° C. for 3-4 hours. […]

input: I'd like to know its CC50 at 5 days. The compound in question is `CCOC(=O)c1c[nH]c2c(/C=N/NC(=O)CNC(=O)c3ccc(OC)c(OC)c3)csc2c1=O`
output: > 100 µM

input: Can you share its CC50 at 5 days? I mean this compound: `COc1ccc(C(=O)NCC(=O)c2ccc(OC)c(-c3ccc(F)c(Cl)c3)n2)cc1OC`
output: > 100 µM

input: Look up CC50 at 5 days for this compound: `CCOCC/C(=N\NC(=O)CNC(=O)c1ccc(OC)c(OC)c1)c1csc2ccccc12`
output: > 100 µM

input: Which CC50 at 5 days is listed for `COc1cc(C(=O)NCC(=O)c2cccc(-c3csc4c(F)cccc34)n2)ccc1OC1CNC1` ?
output: > 100 µM

input: Which CC50 at 5 days is listed for `COc1ccc(C(=O)NCC(=O)c2nc(-c3csc4c(F)cccc34)c(C)n2C)cc1OC` ?
output: 10 to 100 µM

input: State the recorded CC50 at 5 days for this entry: `CCN(/N=C/c1csc2c(F)cccc12)C(=O)CNC(=O)c1ccc(OCCO)c(OC)c1`
output: > 100 µM

input: May I ask what CC50 at 5 days has been recorded for `COc1ccc(C(=O)NCC(=O)N/N=C(\C)c2c(C)[nH]c3ccccc23)cc1OC` ?
output: 10 to 100 µM

input: Look up CC50 at 5 days for this compound: `COc1ccc(C(=O)NCC(=O)c2ccc(OC)c(-c3ccc(F)c(Cl)c3)n2)cc1F`
output: > 100 µM

input: What CC50 at 5 days value was documented for this compound, `CCCn1cc(-c2csc3c(F)cccc23)nc1C(=O)CNC(=O)c1ccc(OC)c(OC)c1` ?
output: 10 to 100 µM

input: Consider the compound shown here: `CCn1cc(-c2csc3c(F)cccc23)nc1C(=O)CNC(=O)c1ccc(OC)c(OC)c1` What is its recorded CC50 at 5 days?
output: 10 to 100 µM

input: Can you share its CC50 at 5 days? I mean this compound: `COc1ccc(C(=O)NCC(=O)c2cc(Cl)cc(-c3csc4c(F)cccc34)n2)cc1OC`
output: > 100 µM

input: So what does the record say about CC50 at 5 days for `CCCn1nc(C(=O)CNC(=O)c2ccc(OC)c(OC)c2)nc1-c1csc2c(F)cccc12` ?
output: 10 to 100 µM

input: Quick one: CC50 at 5 days of `COc1cc(C(=O)NCC(=O)c2cc(C(=O)O)cc(-c3csc4c(F)cccc34)n2)ccc1OCCO` ?
output: > 100 µM

input: // query CC50 at 5 days value for entry `COc1cc(C(=O)CNC(=O)c2ccc(OC)c(OC)c2)nc(-c2ccc3c(c2)OCCO3)c1`
output: > 100 µM

input: I would be grateful if you could share the reported CC50 at 5 days for COc1cc(C(=O)NCC(=O)c2ccc(OC)c(-c3c[s+]([O-])c4c(F)cccc34)n2)ccc1OCCO (stereo not shown) .
output: 10 to 100 µM

input: I am curious: what CC50 at 5 days value has been reported for `CCOc1ccc(C(=O)NCC(=O)NCCc2csc3c(F)cccc23)cc1OC` ?
output: > 100 µM

----------
Experimental Details: Cytotoxicity Determination
Format: cell-based
Test Conditions: human, HEp-2 cells, without addition of virus, CCK-8 readout, bins (Table 4: greater than 100 μM; Table 5: equal to or less than 100 μM and greater than 10 μM), read-out: 50% cytotoxicity concentration (CC50)
For each entry below, report its CC50 at 5 days value.

input: I have this molecule here, `COc1ccc(C(=O)NCC(=O)c2cnc(-c3csc4c(F)cccc34)n2C)cc1OC` , and I need its recorded CC50 at 5 days.
output: > 100 µM

input: Which CC50 at 5 days is listed for `CCCCCC/C(=N\NC(=O)CNC(=O)c1ccc(OC)c(OC)c1)c1csc2ccccc12` ?
output: 10 to 100 µM

input: For `COc1ccc(C(=O)NCC(=O)c2ccc(OC)c(-c3cc(C(=O)NC4CCCCC4)ccc3F)n2)cc1OC` , what is its reported CC50 at 5 days?
output: > 100 µM

input: Consider the molecule `COc1ccc(C(=O)NCC(=O)N/N=C(/C)c2c(OC)sc3ccccc23)cc1OC` and give its measured CC50 at 5 days.
output: > 100 µM

input: Name the reported CC50 at 5 days value associated with the molecule COc1ccc(C(=O)NCC(O)c2ccnc(-c3csc4c(F)cccc34)n2)cc1OC (stereo not shown)
output: > 100 µM

input: Find the recorded CC50 at 5 days belonging to `CCOc1ccc(C(=O)NCC(=O)N/N=C(\CCc2ccccc2)c2csc3ccccc23)cc1OC` and report it.
output: > 100 µM

input: Could you share which CC50 at 5 days value was measured for `COc1cc(C(=O)NCC(=O)c2ccc(OC)c(-c3ccc(F)c(Br)c3)n2)ccc1OCCO` ?
output: > 100 µM

input: May I ask what CC50 at 5 days has been recorded for `COc1ccc(C(=O)NCC(=O)c2ccc(OC)c(-c3cncnc3)n2)cc1OC` ?
output: > 100 µM

input: Value lookup for CC50 at 5 days; key = `COc1ccc(C(=O)CNC(=O)c2ccncn2)nc1-c1ccc(F)c(Cl)c1`
output: > 100 µM

input: Look at this molecule and give its reported CC50 at 5 days. `COc1ccc(C(=O)NCC(=O)N/N=C(/c2csc3ccccc23)C(F)F)cc1OC`
output: > 100 µM

input: What value of CC50 at 5 days has been recorded for this entry: `COc1cc(C(=O)NCC(=O)N/N=C(/CC2CCCCC2)c2csc3c(F)cccc23)ccc1OCCO`
output: 10 to 100 µM

input: If you can, please state the reported CC50 at 5 days value of `COc1ccc(C(=O)NCC(=O)c2ccc(OC)c(-c3cnoc3)n2)cc1OC` .
output: 10 to 100 µM

input: Could you share which CC50 at 5 days value was measured for `COc1ccc(C(=O)NCC(=O)N/N=C/c2c(C)sc3ccccc23)cc1OC` ?
output: 10 to 100 µM

input: Record request: CC50 at 5 days value, item `CCN(CC)c1ccc(C(=O)NCC(=O)N/N=C(\C)c2csc3ccccc23)cc1OC`
output: > 100 µM

input: // CC50 at 5 days lookup, key: `COc1cc(C(=O)NCC(=O)c2ccc(OC)c(-c3ccc(F)c(Cl)c3)n2)ccc1OCC(=O)N(C)C`
output: > 100 µM

input: Quick one: CC50 at 5 days of `COc1ccc(C(=O)NCC(=O)N/N=C(/c2csc3ccccc23)C2CC2)cc1OC` ?
output: 10 to 100 µM
